# Test system: Avena fatua (AVEFA)
# MEASUREMENT_DESCRIPTION: Glasshouse assay for herbicidal activity (pre- and post-emergence), percentage phytotoxicity
# Assay type: in vivo
# ASSAY_CONDITIONS: Avena fatua, pre-emergence, 480 h, Rate 250 g/ha; pre-emergence; assessed visually 20 DAA; 100%=total damage, 0%=no damage; read-out: Pre-emergence herbicidal activity (percentage phytotoxicity) AVEFA PRE
pest or weed control at 250 g/ha strictly less than 90% = YES. Otherwise NO.

A selection of reference data follows.
COMPOUND	ASSAY_SYSTEM	CLASSIFICATION
CC#Cc1cc(C)c(C2C(=O)CC(CC(=O)NC3CC3)C2=O)c(C)c1 (centres unmarked) [Compound A32]	Avena fatua (AVEFA)	YES
Cc1cc(C)c(C2C(=O)CC(CC(=O)NCC(C)C)C2=O)c(C)c1 (centres unmarked) [Compound A5]	Avena fatua (AVEFA)	YES
Cc1cc(C)c(C2C(=O)CC(CC(=O)NCc3cccc(Cl)c3)C2=O)c(C)c1 (centres unmarked) [Compound A96]	Avena fatua (AVEFA)	YES
Cc1cc(C)c(C2C(=O)CC(CC(=O)NC3CCOCC3)C2=O)c(C)c1 (centres unmarked) [Compound A17]	Avena fatua (AVEFA)	YES

Consider the additional compound presented here.
Query: I wonder whether C#CCNC(=O)CC1CC(=O)C(c2c(C)cc(C#CC)cc2CC)C1=O (centres unmarked) [Compound A68] has pest or weed control at 250 g/ha below 90%. Can you tell?
Result: NO

----------
# Tested on: Lolium perenne (LOLPE)
# MEASUREMENT_DESCRIPTION: Glasshouse assay for herbicidal activity (pre- and post-emergence), percentage phytotoxicity
# Assay type: in vivo
# ASSAY_CONDITIONS: Lolium perenne, post-emergence, 360 h, 250 g/ha; post-emergence; 15 DAA; visual assessment (100%=total damage, 0%=no damage); read-out: Post-emergence herbicidal activity (percentage phytotoxicity) LOLPE POST
// values below are reported pest or weed control at 250 g/ha

MOLECULE	ENDPOINT_RESULT
CCc1cccc(C)c1C1C(=O)CC(CC(=O)NC(C)(C)C)C1=O (stereo not drawn) [Compound B149]	80%

Query: Write down pest or weed control at 250 g/ha measured for item Cc1cc(-c2ncc(F)cc2F)cc(C)c1C1C(=O)CC(CC(N)=O)C1=O (stereo not drawn) [Compound B54]
Result: 100%

Query: Write down pest or weed control at 250 g/ha measured for item Cc1cc(C)c(C2C(=O)CC(CC(=O)NCC3CC3(F)F)C2=O)c(C)c1 (stereo not drawn) [Compound B158]
Result: 90%

----------
# Tested on: Lolium perenne (LOLPE)
# MEASUREMENT_DESCRIPTION: Glasshouse assay for herbicidal activity (pre- and post-emergence), percentage phytotoxicity
# Type: in vivo
# ASSAY_CONDITIONS: Lolium perenne, pre-emergence, 480 h, 250 g/ha; pre-emergence; 20 DAA; visual assessment (100%=total damage, 0%=no damage); read-out: Pre-emergence herbicidal activity (percentage phytotoxicity) LOLPE PRE
MEASURED_ATTRIBUTE: pest or weed control at 250 g/ha (%)
Field: numeric (%). Do not append units.

Answered examples (3):
COMPOUND	pest or weed control at 250 g/ha, %
C#CCN(CC#C)C(=O)CC1CC(=O)C(c2c(C)cc(-c3ncc(F)cn3)cc2C)C1=O (centres unmarked)	80
Cc1cc(C)c(C2C(=O)CC(CC(=O)NCc3ccc(C#N)cc3)C2=O)c(C)c1 (centres unmarked)	90
Cc1cc(C)c(C2C(=O)CC(CC(=O)NC3(C4CC4)CC3)C2=O)c(C)c1 (centres unmarked)	90

Query: Write down pest or weed control at 250 g/ha measured for item CCCCNC(=O)CC1CC(=O)C(c2c(C)cc(-c3ncc(F)cn3)cc2C)C1=O (centres unmarked)
Result: 100

Query: Write down pest or weed control at 250 g/ha measured for item Cc1cc(C)c(C2C(=O)CC(CC(=O)NC(C)(C)CCl)C2=O)c(C)c1 (centres unmarked)
Result: 60

Query: Write down pest or weed control at 250 g/ha measured for item Cc1cc(-c2ncc(Cl)s2)cc(C)c1C1C(=O)CC(CC(=O)NC(C)(C)C)C1=O (centres unmarked)
Result: 100

Query: Write down pest or weed control at 250 g/ha measured for item Cc1cc(C)c(C2C(=O)CC(CC(=O)NCc3ccccc3Cl)C2=O)c(C)c1 (centres unmarked)
Result: 90

Query: Write down pest or weed control at 250 g/ha measured for item Cc1cc(C)c(C2C(=O)CC(CC(=O)NCc3cccc(C#N)c3)C2=O)c(C)c1 (centres unmarked)
Result: 90

----------
# Test system: Avena fatua (AVEFA)
# MEASUREMENT_DESCRIPTION: Glasshouse assay for herbicidal activity (pre- and post-emergence), percentage phytotoxicity
# Assay type: in vivo
# ASSAY_CONDITIONS: Avena fatua, pre-emergence, 480 h, Rate 250 g/ha; pre-emergence; assessed visually 20 DAA; 100%=total damage, 0%=no damage; read-out: Pre-emergence herbicidal activity (percentage phytotoxicity) AVEFA PRE
// values below are reported pest or weed control at 250 g/ha
Field: numeric (%). Do not append units.

Answered examples (3):
MOLECULE	ASSAY_SYSTEM	pest or weed control at 250 g/ha (%)
Cc1cc(-c2ncc(Cl)cn2)cc(C)c1C1C(=O)CC(CC(=O)NCc2cccs2)C1=O (stereo not shown) [Compound A139]	Avena fatua (AVEFA)	0
Cc1cc(-c2ccc(Cl)cn2)cc(C)c1C1C(=O)CC(CC(=O)NCc2cccc(Cl)c2)C1=O (stereo not shown) [Compound A134]	Avena fatua (AVEFA)	90
Cc1cc(-c2ncc(Cl)cc2F)cc(C)c1C1C(=O)CC(CC(=O)NCc2ccc(OC(F)(F)F)cc2)C1=O (stereo not shown) [Compound A121]	Avena fatua (AVEFA)	90

Below: the item to evaluate.
Query: Write down pest or weed control at 250 g/ha measured for item Cc1ccc(CNC(=O)CC2CC(=O)C(c3c(C)cc(C)cc3C)C2=O)nc1 (stereo not shown) [Compound A23]
Result: 60

----------
# Tested on: Echinochloa crus-galli (ECHCG)
# MEASUREMENT_DESCRIPTION: Glasshouse assay for herbicidal activity (pre- and post-emergence), percentage phytotoxicity
# Type: in vivo
# ASSAY_CONDITIONS: Echinochloa crus-galli, post-emergence, 360 h, Rate 250 g/ha; post-emergence; visual assessment 15 DAA; 100%=total damage, 0%=no damage; read-out: Post-emergence herbicidal activity (percentage phytotoxicity) ECHCG POST
# Experimental: Test—Glasshouse Assay for Herbicidal Activity Seeds of a variety of monocotyledonous and dicotyledonous test plants are sown in standard soil in pots. The plants are cultivated for one day (for pre-emergence (PRE)) or for about 12 days (for post-emergence (POST)) under controlled conditions in a glasshouse (warm climate species at 24/18° C., cool climate species at 20/16° C., both at day/night; 16 hours light; 65% humidity). […]
MEASURED_ATTRIBUTE: pest or weed control at 250 g/ha
Reply with the number, then its unit.

Answered examples (5):
MOLECULE	pest or weed control at 250 g/ha
C#CCN(C)C(=O)CC1CC(=O)C(c2c(C)cc(-c3ccc(F)cn3)cc2C)C1=O (stereo not shown)	100%
C=CC(C)NC(=O)CC1CC(=O)C(c2c(C)cc(-c3ccc(Cl)cn3)cc2C)C1=O (stereo not shown)	100%
Cc1cc(C)c(C2=C(OC(=O)C(C)(C)C)CC(CC(N)=O)C2=O)c(C)c1 (stereo not shown)	90%
Cc1cc(-c2ccc(Cl)cn2)cc(C)c1C1C(=O)CC(CC(=O)N(C)C(C)C)C1=O (stereo not shown)	100%
CCOCOC1=C(c2c(C)cc(-c3ncc(Cl)cn3)cc2C)C(=O)C(CC(=O)NC(C)(C)C)C1 (stereo not shown)	100%

Query: Retrieve pest or weed control at 250 g/ha on Echinochloa crus-galli (ECHCG); query C#CCNC(=O)CC1CC(=O)C(c2c(C)cc(-c3ccc(F)cn3)cc2C)C1=O (stereo not shown)
Result: 90%

Query: Retrieve pest or weed control at 250 g/ha on Echinochloa crus-galli (ECHCG); query COCC(C)(C)NC(=O)CC1CC(=O)C(c2c(C)cc(-c3ncc(Cl)cn3)cc2C)C1=O (stereo not shown)
Result: 100%

Query: Retrieve pest or weed control at 250 g/ha on Echinochloa crus-galli (ECHCG); query Cc1cc(-c2ncc(Cl)cn2)cc(C)c1C1C(=O)CC(CC(=O)NC(C)C)C1=O (stereo not shown)
Result: 100%

Query: Retrieve pest or weed control at 250 g/ha on Echinochloa crus-galli (ECHCG); query C#Cc1cc(-c2ncc(F)cc2F)cc(C)c1C1C(=O)CC(CC(=O)NC(C)(C)C)C1=O (stereo not shown)
Result: 100%

Query: Retrieve pest or weed control at 250 g/ha on Echinochloa crus-galli (ECHCG); query Cc1cc(-c2ncc(Cl)cn2)cc(C)c1C1=C(OC(=O)N2CCCC2)C(CC(=O)NC(C)(C)C)CC1=O (stereo not shown)
Result: 80%

Query: Retrieve pest or weed control at 250 g/ha on Echinochloa crus-galli (ECHCG); query Cc1cc(-c2ncc(Cl)cn2)cc(C)c1C1C(=O)CC(CC(=O)NCc2cccc(Cl)c2)C1=O (stereo not shown)
Result: 100%

Query: Retrieve pest or weed control at 250 g/ha on Echinochloa crus-galli (ECHCG); query Cc1cc(C)c(C2=C(OC(=O)C(C)(C)C)CC(CC(=O)N(C(=O)C(C)(C)C)C3(C)COC3)C2=O)c(C)c1 (stereo not shown)
Result: 70%

Query: Retrieve pest or weed control at 250 g/ha on Echinochloa crus-galli (ECHCG); query Cc1cc(-c2ccc(F)cn2)cc(C)c1C1C(=O)CC(CC(=O)NCC2CC2)C1=O (stereo not shown)
Result: 40%

Query: Retrieve pest or weed control at 250 g/ha on Echinochloa crus-galli (ECHCG); query C=CCNC(=O)CC1CC(=O)C(c2c(C)cc(-c3ncc(Cl)cn3)cc2C)C1=O (stereo not shown)
Result: 100%

Query: Retrieve pest or weed control at 250 g/ha on Echinochloa crus-galli (ECHCG); query Cc1cc(-c2ncc(F)cc2F)cc(C)c1C1C(=O)CC(CC(=O)NOCc2ccccc2)C1=O (stereo not shown)
Result: 100%

Query: Retrieve pest or weed control at 250 g/ha on Echinochloa crus-galli (ECHCG); query C=Cc1cc(-c2ncc(F)cc2F)cc(C)c1C1C(=O)CC(CC(=O)NC(C)(C)C)C1=O (stereo not shown)
Result: 100%

Query: Retrieve pest or weed control at 250 g/ha on Echinochloa crus-galli (ECHCG); query C=Cc1cc(-c2ccc(Cl)cn2)cc(C)c1C1C(=O)CC(CC(=O)NC(C)(C)C)C1=O (stereo not shown)
Result: 100%

Query: Retrieve pest or weed control at 250 g/ha on Echinochloa crus-galli (ECHCG); query Cc1cc(-c2ccc(Cl)cn2)cc(C)c1C1C(=O)CC(CC(=O)NC(C)C)C1=O (stereo not shown)
Result: 100%

Query: Retrieve pest or weed control at 250 g/ha on Echinochloa crus-galli (ECHCG); query Cc1cc(-c2ccc(F)cn2)cc(C)c1C1C(=O)CC(CC(=O)NC(C)C)C1=O (stereo not shown)
Result: 100%
